Can you tell me % Inhibition for the items I'm about to list?
testedOn: T1, MICA*008 on MEL-JUSO cells (human, UniProt Q29983 24-317)
T1 chain: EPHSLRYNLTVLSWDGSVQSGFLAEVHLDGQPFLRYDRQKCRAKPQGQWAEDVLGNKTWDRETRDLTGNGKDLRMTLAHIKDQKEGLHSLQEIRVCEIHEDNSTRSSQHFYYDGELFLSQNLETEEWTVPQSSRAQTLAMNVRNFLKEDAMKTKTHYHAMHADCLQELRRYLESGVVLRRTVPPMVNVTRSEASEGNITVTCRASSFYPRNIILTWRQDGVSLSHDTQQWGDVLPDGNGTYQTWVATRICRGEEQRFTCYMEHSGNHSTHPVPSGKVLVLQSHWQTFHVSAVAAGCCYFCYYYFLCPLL
assayText: cell-based or functional assay; note: test concentration or dose not given here
Answers are plain numbers, in %.

binder | % Inhibition, %
6E1 (m IgG2a, CHO) (antibody, V domains shown) VH: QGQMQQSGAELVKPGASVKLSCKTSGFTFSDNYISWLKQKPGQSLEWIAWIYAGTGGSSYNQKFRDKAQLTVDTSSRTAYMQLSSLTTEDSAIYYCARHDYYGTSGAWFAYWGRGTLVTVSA VL: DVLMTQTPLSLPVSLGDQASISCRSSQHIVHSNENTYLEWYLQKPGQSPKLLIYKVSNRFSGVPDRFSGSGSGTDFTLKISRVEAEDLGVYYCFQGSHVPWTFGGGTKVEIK | 36
1D5v16 (antibody, IgG1, V domains shown, humanized variant of 1D5) VH: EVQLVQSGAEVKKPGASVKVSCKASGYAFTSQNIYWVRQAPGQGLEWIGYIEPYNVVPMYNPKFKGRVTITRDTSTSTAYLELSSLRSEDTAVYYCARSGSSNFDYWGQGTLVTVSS VL: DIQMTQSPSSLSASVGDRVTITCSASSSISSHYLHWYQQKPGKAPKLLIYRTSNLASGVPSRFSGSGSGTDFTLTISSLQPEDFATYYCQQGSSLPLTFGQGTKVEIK | 51
1D5v6 (antibody, IgG1, V domains shown, humanized variant of 1D5) VH: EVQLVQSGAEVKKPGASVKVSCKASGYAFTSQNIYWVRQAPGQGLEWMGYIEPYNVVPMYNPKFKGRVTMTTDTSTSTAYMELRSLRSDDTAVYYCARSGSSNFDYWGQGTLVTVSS VL: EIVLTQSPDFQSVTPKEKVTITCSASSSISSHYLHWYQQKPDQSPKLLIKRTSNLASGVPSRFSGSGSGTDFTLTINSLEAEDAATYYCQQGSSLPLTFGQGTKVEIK | 51
1D5 (m IgG2a, CHO) (antibody, V domains shown) VH: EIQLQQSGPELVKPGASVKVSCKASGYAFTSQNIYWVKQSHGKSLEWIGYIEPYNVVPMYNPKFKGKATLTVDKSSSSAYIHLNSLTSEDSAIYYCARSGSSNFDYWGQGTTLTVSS VL: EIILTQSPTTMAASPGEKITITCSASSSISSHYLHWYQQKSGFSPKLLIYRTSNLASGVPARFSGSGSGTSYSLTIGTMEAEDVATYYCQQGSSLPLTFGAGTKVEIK | 74

// next item, % Inhibition requested
Looking up 1D5v27 (antibody, IgG1, V domains shown, humanized variant of 1D5) VH: EIQLVQSGAEVKKPGASVKVSCKASGYAFTSQNIYWVRQAPGQGLEWIGYIEPYNVVPAYNPKFKGRATLTVDKSTSTAYLELSSLRSEDTAVYYCARSGSSNFDYWGQGTLVTVSS VL: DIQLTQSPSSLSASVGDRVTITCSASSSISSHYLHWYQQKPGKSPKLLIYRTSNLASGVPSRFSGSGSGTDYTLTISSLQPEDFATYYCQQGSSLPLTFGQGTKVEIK , I see its % Inhibition listed as 69
